# credit: patent US11311542B2

studySystem: CDK2/Cyclin E1 complex (Homo sapiens)
testProtocol: CDK2 kinase inhibition assay (Caliper/LabChip EZ Reader)
pIC50: −log10 of the molar value.
readoutLabel: pIC50

Exercise: Give its pIC50 value. Item: Cc1noc(C)c1-c1cc2[nH]cc(-c3nc(N[C@H]4CCCNC4)ncc3C(F)(F)F)c2cc1F
Key: < 6.30

Exercise: Give its pIC50 value. Item: Cc1noc(C)c1-c1ccc2c(-c3nc(N[C@@H]4CNCC(C)(C)C4)ncc3C(F)(F)F)c[nH]c2n1
Key: 6.30 to 7.00

Exercise: Give its pIC50 value. Item: Cc1noc(C)c1-c1ccc2c(-c3nc(N[C@H]4CCC(C)(C)NC4)ncc3C(F)(F)F)n[nH]c2n1
Key: < 6.30

Exercise: Give its pIC50 value. Item: Cc1noc(C)c1-c1ccc2c(-c3nc(N[C@@H]4CNC[C@H](O)C4)ncc3C(F)(F)F)c[nH]c2n1
Key: < 6.30

Exercise: Give its pIC50 value. Item: FC(F)(F)c1cnc(N[C@H]2CCCNC2)nc1-c1c[nH]c2nc(-c3nccs3)ccc12
Key: < 6.30

Exercise: Give its pIC50 value. Item: CNC(=O)[C@H]1CNC[C@@H](Nc2ncc(C(F)(F)F)c(-c3c[nH]c4cc(-c5c(C)noc5C)ccc34)n2)C1
Key: < 6.30

Exercise: Give its pIC50 value. Item: CNC(=O)[C@H]1CNC[C@@H](Nc2ncc(C(F)(F)F)c(-c3c[nH]c4nc(-c5nccs5)ccc34)n2)C1
Key: < 6.30

Exercise: Give its pIC50 value. Item: Cc1nocc1-c1ccc2c(-c3nc(N[C@H]4CC[C@H](C)NC4)ncc3C(F)(F)F)c[nH]c2n1
Key: < 6.30

Exercise: Give its pIC50 value. Item: Cc1noc(-c2ccc3c(-c4nc(N[C@H]5CCCNC5)ncc4C(F)(F)F)c[nH]c3n2)n1
Key: < 6.30

Exercise: Give its pIC50 value. Item: CO[C@@H]1CCNC[C@H]1Nc1ncc(C(F)(F)F)c(-c2c[nH]c3cc(-c4c(C)noc4C)ccc23)n1 (single isomer, unassigned)
Key: < 6.30

Exercise: Give its pIC50 value. Item: Cc1noc(C)c1-c1ccc2c(-c3nc(N[C@H]4CC[C@H](C)NC4)ncc3C(F)(F)F)c[nH]c2n1
Key: < 6.30

Exercise: Give its pIC50 value. Item: CO[C@@H]1CCNC[C@H]1Nc1ncc(C(F)(F)F)c(-c2c[nH]c3nc(-c4c(C)noc4C)ccc23)n1 (single isomer, unassigned)
Key: < 6.30

Exercise: Give its pIC50 value. Item: Cn1nncc1-c1ccc2c(-c3nc(N[C@H]4CCCNC4)ncc3C(F)(F)F)c[nH]c2c1
Key: < 6.30

Exercise: Give its pIC50 value. Item: Cc1nscc1-c1ccc2c(-c3nc(N[C@H]4CCCNC4)ncc3C(F)(F)F)c[nH]c2n1
Key: < 6.30
